Target: BRAF V600E (Homo sapiens, UniProt P15056, V600E)
Construct: endogenous C-terminal HiBiT fusion tag on BRAF V600E allele; endogenous in cells; host or cells: A375 clone 1F10 (CRISPR-Cas9 knock-in of the HiBiT tag; parental A375 from ATCC)
Sequence (P15056 whole entry V600E, the tested form may be a part): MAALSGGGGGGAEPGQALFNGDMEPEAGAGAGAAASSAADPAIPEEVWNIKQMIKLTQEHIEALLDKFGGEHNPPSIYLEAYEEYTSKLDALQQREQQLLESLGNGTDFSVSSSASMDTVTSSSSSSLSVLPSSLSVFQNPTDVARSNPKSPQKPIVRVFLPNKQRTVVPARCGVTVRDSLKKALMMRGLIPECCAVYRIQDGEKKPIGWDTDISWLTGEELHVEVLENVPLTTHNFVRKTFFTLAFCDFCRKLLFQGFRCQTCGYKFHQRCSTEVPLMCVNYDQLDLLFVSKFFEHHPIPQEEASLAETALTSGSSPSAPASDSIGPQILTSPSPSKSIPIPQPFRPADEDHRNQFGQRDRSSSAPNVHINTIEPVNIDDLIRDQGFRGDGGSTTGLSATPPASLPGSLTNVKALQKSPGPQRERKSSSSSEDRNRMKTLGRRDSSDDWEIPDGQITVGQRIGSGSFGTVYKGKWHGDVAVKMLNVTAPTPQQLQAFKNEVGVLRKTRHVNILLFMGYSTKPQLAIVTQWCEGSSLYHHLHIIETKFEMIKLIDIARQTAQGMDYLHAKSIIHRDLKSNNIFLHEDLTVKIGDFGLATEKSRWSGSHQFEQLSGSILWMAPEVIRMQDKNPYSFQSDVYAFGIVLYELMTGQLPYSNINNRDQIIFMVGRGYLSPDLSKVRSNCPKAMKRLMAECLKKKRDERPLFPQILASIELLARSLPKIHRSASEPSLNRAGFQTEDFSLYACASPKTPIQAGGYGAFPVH
Assay: BRAF HiBiT degradation assay, C-terminal HiBiT-tagged BRAF V600E A375 cells (clone 1F10), Nano-Glo HiBiT Lytic assay
Assay type: cell-based
Settings: A-375; A375 (BRAF V600E, Class 1); observed Dmax, % protein degraded relative to DMSO control
measure: Dmax

*Q* Please give the measured Dmax for this compound: CCCS(=O)(=O)Nc1cccc(-c2nc(C3CCC4(CC3)CCN(C(=O)C3CCN(c5ccc(C6CCC(=O)NC6=O)cn5)CC3)CC4)sc2-c2ccnc(N)n2)c1F (racemic)
*A* > 70%

*Q* I am curious: what Dmax value has been reported for O=C1CCC(c2ccc(N3CCC(CN4CCN(c5ccc(-n6cc(-c7cc(Cl)cc(NS(=O)(=O)C8CCCC8)c7F)c(-c7ccncc7)n6)cc5)CC4)CC3)nc2)C(=O)N1 (racemic) ?
*A* > 70%

*Q* What value of measured Dmax is listed for O=C1CC[C@H](c2ccc(N3CCC(CN4CCN(c5cnc(-n6cc(-c7cc(F)cc(NS(=O)(=O)N8CCCC8)c7F)c(-c7ccncc7)n6)nc5)CC4)CC3)cc2)C(=O)N1 ?
*A* > 70%

====

Target: BRAF G466V (Homo sapiens, UniProt P15056, G466V)
Construct: Horizon Discovery (HCT-116 BRAF−/− cells); host or cells: HCT-116 BRAF−/− cells, clone 8, lentiviral transduction
Sequence (P15056 whole entry G466V): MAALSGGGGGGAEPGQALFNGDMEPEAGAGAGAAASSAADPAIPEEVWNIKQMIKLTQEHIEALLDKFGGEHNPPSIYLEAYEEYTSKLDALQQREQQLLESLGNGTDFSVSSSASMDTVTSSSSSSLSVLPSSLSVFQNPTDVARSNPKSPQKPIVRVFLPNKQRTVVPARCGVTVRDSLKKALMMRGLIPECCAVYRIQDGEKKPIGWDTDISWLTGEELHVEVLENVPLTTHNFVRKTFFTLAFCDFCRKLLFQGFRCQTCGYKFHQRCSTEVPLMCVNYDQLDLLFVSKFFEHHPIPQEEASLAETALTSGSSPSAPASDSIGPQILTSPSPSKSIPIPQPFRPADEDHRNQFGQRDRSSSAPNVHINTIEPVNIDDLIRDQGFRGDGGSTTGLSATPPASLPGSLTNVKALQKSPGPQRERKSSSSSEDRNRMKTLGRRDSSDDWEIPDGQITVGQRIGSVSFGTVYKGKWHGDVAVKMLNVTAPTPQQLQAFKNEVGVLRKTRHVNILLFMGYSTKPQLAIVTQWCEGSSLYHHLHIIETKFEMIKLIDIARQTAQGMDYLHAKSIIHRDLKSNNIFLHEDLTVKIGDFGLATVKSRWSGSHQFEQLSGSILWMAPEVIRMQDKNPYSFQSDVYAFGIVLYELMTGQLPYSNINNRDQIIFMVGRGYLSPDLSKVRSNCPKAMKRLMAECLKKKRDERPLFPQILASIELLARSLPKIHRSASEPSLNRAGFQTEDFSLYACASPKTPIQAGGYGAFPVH
Experiment: BRAF HiBiT degradation assay, C-terminal HiBiT-tagged BRAF G466V overexpressed in HCT-116 BRAF−/− cells (clone 8), Nano-Glo HiBiT Lytic assay
Format: cell-based
Conditions: HCT-116; BRAF G466V; percentage protein degraded at maximal compound effect relative to DMSO
measure: Dmax

*Q* Item under review: CCCS(=O)(=O)Nc1cccc(-c2nc(C(C)(C)C)sc2-c2ccnc(Nc3ccc(N4CCN(C(=O)CC5CCN(c6ccc(NC7CCC(=O)NC7=O)cc6)CC5)CC4)c(F)c3)n2)c1F (racemic) [Compound 46] . Reported Dmax?
*A* 30 to 70%

*Q* Endpoint output: Dmax of CCCS(=O)(=O)Nc1cccc(-c2nc(C(C)(C)C)sc2-c2ccnc(Nc3cccc(C4CCN(CC5CCN(c6ccc7c(=O)n(C8CCC(=O)NC8=O)ccc7c6)CC5)CC4)c3)n2)c1F (racemic) [Compound 76] . Value?
*A* < 30%

*Q* Dmax lookup needed for CCCS(=O)(=O)Nc1cccc(-c2cn(-c3ccc(N4CCN(CC5CCN(c6ccc([C@H]7CCC(=O)NC7=O)cc6)CC5)CC4)cc3)nc2-c2ccncc2)c1F [Compound 16] , thanks.
*A* > 70%

*Q* Fill in the blank: the reported Dmax of CCCS(=O)(=O)Nc1cccc(-c2nc(C(C)(C)C)sc2-c2ccnc(Nc3cccc(OC4CCN(C(=O)C[C@@H]5CCN(c6ccc(C7CCC(=O)NC7=O)cc6)C5)CC4)c3)n2)c1F (mixture of isomers) [Compound 92] is ____.
*A* < 30%

*Q* Any idea what its Dmax is? The molecule is CCCS(=O)(=O)Nc1cccc(-c2nc(C(C)(C)C)sc2-c2ccnc(Nc3ccc(N4CCN(CC5CCN(c6ccc([C@H]7CCC(=O)NC7=O)cc6)CC5)CC4)cc3)n2)c1F [Compound 59]
*A* > 70%

*Q* Consider the molecule shown here: CCCS(=O)(=O)Nc1cccc(-c2nc(C(C)(C)C)sc2-c2ccnc(N[C@H]3CC[C@@H](N4CCN(C(=O)C5CCN(c6ccc(C7CCC(=O)NC7=O)cn6)CC5)CC4)CC3)n2)c1F (mixture of isomers) [Compound 138] What is its recorded Dmax?
*A* 30 to 70%

*Q* For the molecule CCCS(=O)(=O)Nc1cccc(-c2nc(C(C)(C)C)sc2-c2ccnc(Nc3cccc(OC4CCN(CC5(C)CCN(c6ccc(C7CCC(=O)NC7=O)cn6)CC5)CC4)c3)n2)c1F (racemic) [Compound 68] , what Dmax is on record?
*A* 30 to 70%

*Q* Given the molecule CCCS(=O)(=O)Nc1cccc(-c2nc(C(C)(C)C)sc2-c2ccnc(Nc3cccc(OC4CCN(C(=O)[C@H]5CC[C@H](Oc6ccc(C7CCC(=O)NC7=O)cn6)CC5)CC4)c3)n2)c1F (mixture of isomers) [Compound 97] , what is its reported Dmax?
*A* 30 to 70%

*Q* Can you look up the measured Dmax of CCN(C)S(=O)(=O)Nc1cccc(-c2nc(C(C)(C)C)sc2-c2ccnc(Nc3ccc(N4CCN(CC5CC6(C5)CN(c5ccc(C7CCC(=O)NC7=O)cn5)C6)CC4)cn3)n2)c1F (racemic) [Compound 30] for me?
*A* 30 to 70%

*Q* So what's the measured Dmax for this one? CCCS(=O)(=O)Nc1cccc(-c2nc(C(C)(C)C)sc2-c2ccnc(N[C@H]3CC[C@@H](N4CCN(CC5CCN(c6ccc(C7CCC(=O)NC7=O)cn6)CC5)CC4)CC3)n2)c1F (mixture of isomers) [Compound 134]
*A* 30 to 70%

*Q* For the molecule CCCS(=O)(=O)Nc1cccc(-c2nc(C(C)(C)C)sc2-c2ccnc(Nc3cccc(OC4CCN(C[C@H]5CC[C@H](Oc6ccc(C7CCC(=O)NC7=O)cc6)CC5)CC4)c3)n2)c1F (mixture of isomers) [Compound 72] , what Dmax is on record?
*A* 30 to 70%

*Q* Any idea what Dmax was measured for CCCS(=O)(=O)Nc1cccc(-c2nc(-c3ccc(C4CCN(CC5CCN(c6ccc(C7CCC(=O)NC7=O)cn6)CC5)CC4)cc3)sc2-c2ccnc(N)n2)c1F (racemic) [Compound 208] ?
*A* 30 to 70%
